src = PubChem BioAssay (NCI)

- Tested on: SK-MEL-28 melanoma
- assay-remarks: NCI-60 one-dose screen, 48 h (100 = growth as untreated, 0 = no growth, -100 = all killed)
- conditions-used: 10 µM unless noted
Compounds without any hit were thinned out: in the full panel of roughly 83,000, 20% have a hit.
assay-endpoint: growth (%)
Hi! Could you send only the number? It should be in %, unit omitted.

Solved entries:
[
  {
    "structure": "C=C(C)[C@@H]1CCC[C@]2(COS(=O)(=O)c3ccc(C)cc3)CC[C@]3(C)[C@@H](CC[C@@H]4[C@@]5(C)CCCNC(C)(C)[C@@H]5CC[C@]43C)[C@@H]12",
    "study-target": "SK-MEL-28 melanoma",
    "measurement-units": "%",
    "growth": 68.3
  },
  {
    "structure": "COC1=CC(c2ccc[nH]2)=N/C1=C\\c1[nH]c(C)c(CC(=O)NCc2ccccc2)c1C",
    "study-target": "SK-MEL-28 melanoma",
    "measurement-units": "%",
    "growth": 22.1
  },
  {
    "structure": "CC(=O)/C(=C\\c1c(-c2ccccc2)[nH]c2ccccc12)S(C)(=O)=O",
    "study-target": "SK-MEL-28 melanoma",
    "measurement-units": "%",
    "growth": 34.4
  }
]

// query growth value for entry Cc1ccc(C[P+](c2ccccc2)(c2ccccc2)c2ccccc2)cc1 9.82
